# target-or-system: D(4) dopamine receptor (Homo sapiens)
# Sequence (P21917 whole entry): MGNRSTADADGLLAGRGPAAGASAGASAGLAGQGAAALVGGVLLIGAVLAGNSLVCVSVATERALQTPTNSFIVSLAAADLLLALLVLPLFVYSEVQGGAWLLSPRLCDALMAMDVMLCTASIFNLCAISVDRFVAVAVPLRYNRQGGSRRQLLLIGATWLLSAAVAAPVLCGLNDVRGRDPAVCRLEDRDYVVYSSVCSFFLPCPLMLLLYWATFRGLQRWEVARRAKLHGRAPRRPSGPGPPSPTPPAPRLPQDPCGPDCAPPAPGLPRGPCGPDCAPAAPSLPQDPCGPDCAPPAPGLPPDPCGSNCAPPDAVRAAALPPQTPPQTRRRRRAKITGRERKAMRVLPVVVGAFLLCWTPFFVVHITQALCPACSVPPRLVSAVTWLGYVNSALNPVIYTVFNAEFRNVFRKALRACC
# procedure-summary: Displacement of [3H]N-methylspiperone from human dopamine D4 receptor after 1 hr
Task for the reader: assign each of the following compounds its reported Ki.
Please reply with the bare figure in µM and do not write the unit itself.

Exercise: Recorded Ki of COc1c(O)ccc2c1CN1CCc3cc4c(cc3[C@@H]1C2)OCO4 , please.
Key: 1.98

Exercise: Recorded Ki of COc1ccc2c(c1OC)CN1CCc3cc4c(cc3[C@@H]1C2)OCO4 , please.
Key: 0.486
